Each recorded value in this set is attributed to PubChem BioAssay (NCI).

System: SF-268 CNS
Test: NCI tumour cell line growth inhibition, 48 h
TGI by entry:
measured-endpoint: TGI (µM)

# smi, limit-operator, numeric-value
rows = [
    ("COc1ccc(/C=C\\c2cc(OC)c(OC)c(OC)c2)cc1OCC(=O)Nc1nc2ccc(C(F)(F)F)cc2s1", "=", 48.6),
    ("CN(C)Cc1ccc(C(=O)Nc2ccc3ncnc(Nc4ccc(Oc5cccc(F)c5)c(Cl)c4)c3c2)cc1", "=", 3.28),
    ("COC(=O)N/N=C/c1oc(-c2cccc([N+](=O)[O-])c2)c(-c2cccc([N+](=O)[O-])c2)c1[N+](=O)[O-]", ">", 100),
    ("CCOC(=O)Oc1c(OC)cc(C(=O)O[C@@H]2C[C@@H]3CN4CCc5c([nH]c6cc(OC)ccc56)[C@H]4C[C@@H]3[C@H](C(=O)OC)[C@H]2OC)cc1OC", "=", 27.5),
]
